Biological target: mouse ADAMTS7 (Mus musculus, UniProt Q68SA9, E373Q)
Construct: Full-length mouse Adamts7 1-1857 (Uniprot Q68SA9, WT or E373Q catalytic mutant); expressed in transfected cells; host or cells: Human Coronary Artery Smooth Muscle Cells (HCA-SMC, Lonza), adenovirus 50 MOI
Sequence (Q68SA9 221-1657 E373Q): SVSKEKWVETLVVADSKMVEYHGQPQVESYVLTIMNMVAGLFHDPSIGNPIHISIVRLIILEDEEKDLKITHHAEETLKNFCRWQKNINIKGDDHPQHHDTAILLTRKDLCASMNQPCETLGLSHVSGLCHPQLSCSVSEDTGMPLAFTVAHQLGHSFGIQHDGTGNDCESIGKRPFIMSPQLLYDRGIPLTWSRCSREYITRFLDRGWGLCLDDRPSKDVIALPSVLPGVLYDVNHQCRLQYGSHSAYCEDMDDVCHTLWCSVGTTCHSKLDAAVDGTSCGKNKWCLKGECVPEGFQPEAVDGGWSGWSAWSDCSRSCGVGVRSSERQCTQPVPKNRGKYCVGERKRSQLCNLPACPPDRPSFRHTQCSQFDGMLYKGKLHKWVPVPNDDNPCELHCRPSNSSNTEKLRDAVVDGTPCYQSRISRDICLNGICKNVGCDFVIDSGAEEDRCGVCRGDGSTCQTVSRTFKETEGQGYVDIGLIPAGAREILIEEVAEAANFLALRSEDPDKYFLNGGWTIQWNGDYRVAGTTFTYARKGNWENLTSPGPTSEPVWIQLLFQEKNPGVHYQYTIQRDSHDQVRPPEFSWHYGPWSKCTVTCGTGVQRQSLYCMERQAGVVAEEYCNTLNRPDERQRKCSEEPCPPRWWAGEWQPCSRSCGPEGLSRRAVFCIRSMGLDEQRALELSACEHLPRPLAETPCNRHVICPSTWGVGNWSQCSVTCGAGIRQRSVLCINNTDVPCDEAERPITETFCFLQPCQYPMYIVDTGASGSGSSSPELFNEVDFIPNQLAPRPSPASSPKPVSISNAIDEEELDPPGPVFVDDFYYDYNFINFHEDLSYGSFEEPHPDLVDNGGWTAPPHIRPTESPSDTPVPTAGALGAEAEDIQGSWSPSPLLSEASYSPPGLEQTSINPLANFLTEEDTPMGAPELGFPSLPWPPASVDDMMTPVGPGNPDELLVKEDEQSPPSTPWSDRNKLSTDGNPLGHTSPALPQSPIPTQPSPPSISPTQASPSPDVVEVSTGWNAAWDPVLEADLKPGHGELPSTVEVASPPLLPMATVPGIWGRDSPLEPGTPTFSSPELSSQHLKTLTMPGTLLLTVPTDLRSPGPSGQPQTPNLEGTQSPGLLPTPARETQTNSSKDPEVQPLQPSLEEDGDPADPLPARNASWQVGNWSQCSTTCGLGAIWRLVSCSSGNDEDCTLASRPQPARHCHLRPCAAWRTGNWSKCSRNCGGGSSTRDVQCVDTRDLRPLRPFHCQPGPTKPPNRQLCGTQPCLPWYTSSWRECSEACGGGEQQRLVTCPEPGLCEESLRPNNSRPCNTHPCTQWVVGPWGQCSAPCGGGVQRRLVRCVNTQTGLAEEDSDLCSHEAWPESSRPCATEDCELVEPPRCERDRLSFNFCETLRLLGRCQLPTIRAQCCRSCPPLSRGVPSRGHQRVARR
Test: TMT10 TAILS N-terminomics, SMC2 experiment (process replicates, trypsin/AspN digest)
Type: cell-based
Settings: log fold change, ADAMTS7 EQ over luciferase
MEASURE NAME: logFC.mEQ.over.Luc
Output: the number by itself.

Solved entries:
>>> print(df.to_string())
                                  substance  endpoint_value
0  TLN1_1501 (HTSALCNSCR; listed as Homo sapiens)           −0.17
1  STC2_244 (HHLPEPSSR; listed as Homo sapiens)           −0.26
2  SERBP1_56 (QAAAQTNSNAAGKQLR; listed as Homo sapiens)           −0.09

Query: // returns reported logFC.mEQ.over.Luc for input SRGN_59 (LLPGESNKIPR; listed as Homo sapiens)
Reply: −0.10

Query: Then what about the substance STC1_37 (QNSAEVVR; listed as Homo sapiens) ?
Reply: −0.22

Query: Then what about the substance VIM_433 (LVDTHSKR; listed as Homo sapiens) ?
Reply: 0.12

Data origin: patent US20240368668A1
